experimentalSystem: 新型冠状病毒(SARS-CoV-2)N蛋白 (SARS-CoV-2, UniProt P0DTC9 1-419)
measurementLabel: Kd (nM)

INSERT INTO results (binder, measurementlabel, measurementqualifier, valuereported) VALUES
  ('N83抗体 (N蛋白特异性单克隆抗体N83) (antibody, V domains shown) VH: QVQLQESGPRLVKSSETLSLTCTVSGGSISSGSYYWNWIRQPAGKGLEWIGRVYISGVTSYNPSLKSRVTISLDISKNQFSLQLTSVTAADSAVYYCARGGMAVGAPLYYYFYGMDVWGQGTTVTVSS VL: DVVMTQSPLSLPVTPGEPASISCRSSQSLLHSNGYNYVDWYLQKPGQSPQLMIYLGSNRASGVPDRFSGSGSGTHFTLKISRVEAEDVGVYYCMQALQTLSITFGQGTRLEIK', 'Kd', '=', 1.76),
  ('3B7抗体 (N蛋白特异性单克隆抗体3B7) (antibody, V domains shown) VH: QMQLVQSGAEVKKPGASVRVSCKVSGYSLTELPMHWVRQAPGKGLEWVGSFDPQDAETTYAQRFQGRVAMTEDTSTDTAYMELSSLRSEDTAVYYCATPAPTIVGVVIYALHIWGQGTMVTVSS VL: EIVLTQSPGTLSLSPGERATLSCRASQRVSDNSLAWYQQKPGQAPSLLIFAASIRAPGIPDRISGTGSGTDFTLTINRLEPEDFVVYFCLQYTTSPPLTFGGGTKLEIK', 'Kd', '=', 1.94),
  ('N31抗体 (N蛋白特异性单克隆抗体N31) (antibody, V domains shown) VH: QMQLVQSGAEVKKPGSSVKVSCKASGGTFSSYGISWVRQAPGQGLEWMGGIIPILGTANYAQRFQGRIALTADESTSTAYMEVSSLRSEDTAVYYCARGMWSNPPGYCCSYMDVWGKGTTVTVSS VL: EIVLTQSPATLSVSPGERVTLACRASQSLRSKLAWYQQKPGQAPRLLIYDASTRATGFPARFSGSGSGTEFTLTISSLQSEDFAVYYCQQYSNWPRTFGQGTKLEIK', 'Kd', '<', 0.001),
  ('N5抗体 (N蛋白特异性单克隆抗体N5) (antibody, V domains shown) VH: QVQLVQSGAEVKKPGSSVKVSCKASGGTFSSYAIGWVRQAPGQGLEWMGAIIPIFGTTIFAQKFQGRVTITADESTTTAYMELSSLRSDDTAVYYCARGGGGVERGVILTRWFDPWGQGTLVTVSS VL: QSVLTQPPSVSAAPGQKVTLSCSGSSSNIGNNHVSWYQQLPGTAPKLLIYDNNKRPSGIPDRFSGSKSGTSATLGITGLQTGDEADYYCGTWDNSLSAGVFGGGTKLTVV', 'Kd', '<', 0.001);
